target_desc: uPAR-expressing HEC-265 human endometrial adenocarcinoma cells (Homo sapiens, UniProt Q03405)
Sequence (Q03405 23-335): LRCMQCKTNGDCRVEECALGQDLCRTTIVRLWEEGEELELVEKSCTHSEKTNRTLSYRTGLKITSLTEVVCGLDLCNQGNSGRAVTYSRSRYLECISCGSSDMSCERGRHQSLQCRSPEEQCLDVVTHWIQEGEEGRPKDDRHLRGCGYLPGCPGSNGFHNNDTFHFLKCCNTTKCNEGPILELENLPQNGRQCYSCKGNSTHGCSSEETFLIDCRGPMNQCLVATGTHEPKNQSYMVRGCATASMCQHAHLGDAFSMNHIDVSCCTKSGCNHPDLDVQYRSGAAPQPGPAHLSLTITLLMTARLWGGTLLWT
Where a SMILES comes first, the peptide text is derived from it. Bridges are numbered along the chain shown (N, C = ends). [ ]: non-standard residue; d: D form. The star is where a group is joined. DOTA = O=C(O)CN1CCN(CC(=O)O)CCN(CC(=O)*)CCN(CC(=O)O)CC1; Hyp = O=C(O)[C@@H]1C[C@@H](O)CN1; 3Pal = N[C@@H](Cc1cccnc1)C(=O)O; Pentanoyl(4-Me) = CC(C)CCC(=O)*; Cit = NC(=O)NCCC[C@H](N)C(=O)O; NMeL = CN[C@@H](CC(C)C)C(=O)O; Tle = CC(C)(C)[C@H](N)C(=O)O; Nva = CCC[C@H](N)C(=O)O; Pentanoyl = CCCCC(=O)*
Listed here are compounds together with their documented IC50.
measurement_kind: IC50

INSERT INTO assay_data (compound, measurement_kind, measurement) VALUES
  ('CCCCC(=O)N[C@H]1CSSC[C@@H](C(N)=O)NC(=O)[C@H](CCC)NC(=O)[C@H]([C@@H](C)CC)NC(=O)[C@@H]2C[C@@H](O)CN2C(=O)[C@@H]2CCCN2C(=O)[C@H](Cc2cccnc2)NC(=O)[C@H](Cc2ccc(O)cc2)NC(=O)[C@H](CCCCNC(=O)CN2CCN(CC(=O)O)CCN(CC(=O)O)CCN(CC(=O)O)CC2)NC(=O)[C@H](CCCNC(N)=O)NC1=O [UPAR-253] (Pentanoyl-C[Cit]K(DOTA)Y[3Pal]P[Hyp]I[Nva]C-NH2; disulfide 1-10)', 'IC50', '≤ 10 nM'),
  ('CC[C@H](C)[C@@H]1NC(=O)[C@@H]2C[C@@H](O)CN2C(=O)[C@@H]2CCCN2C(=O)[C@H](Cc2ccccc2)NC(=O)[C@H](Cc2ccc(O)cc2)NC(=O)[C@H](CCC(N)=O)NC(=O)[C@H](CCCNC(N)=O)NC(=O)[C@@H](NC(=O)[C@H](CC(C)C)NC(=O)CN2CCN(CC(=O)O)CCN(CC(=O)O)CCN(CC(=O)O)CC2)CSSC[C@@H](C(N)=O)NC(=O)[C@H](CC(C)C)N(C)C1=O [UPAR-371] ({DOTA}-LC[Cit]QYFP[Hyp]I[NMeL]C-NH2; disulfide 2-11)', 'IC50', '≥ 126 nM'),
  ('CC(C)CCC(=O)N[C@H]1CSSC[C@@H](C(N)=O)NC(=O)[C@H](CC(C)C)NC(=O)[C@H](C(C)(C)C)NC(=O)[C@@H](C)NC(=O)[C@@H]2CCCN2C(=O)[C@H](Cc2ccccc2)NC(=O)[C@H](Cc2ccc(O)cc2)NC(=O)[C@H](CCC(N)=O)NC(=O)[C@H](CCCNC(N)=O)NC1=O [UPAR-201] ({Pentanoyl(4-Me)}-C[Cit]QYFP[dA][Tle]LC-NH2; disulfide 1-10)', 'IC50', '39.8 to 100 nM'),
  ('CC[C@H](C)[C@@H]1NC(=O)[C@H](C)NC(=O)[C@@H]2CCCN2C(=O)[C@H](Cc2ccccc2)NC(=O)[C@H](Cc2ccc(O)cc2)NC(=O)[C@H](CCSC)NC(=O)[C@H](CCCNC(=N)N)NC(=O)[C@@H](NC(=O)[C@H](CC(C)C)NC(=O)[C@H](CC(=O)O)NC(C)=O)CSSC[C@@H](C(N)=O)NC(=O)[C@H](CC(C)C)NC1=O [UPAR-341] (Ac-DLCRMYFPAILC-NH2; disulfide 3-12)', 'IC50', '≤ 10 nM'),
  ('CCCCC(=O)N[C@H]1CSSC[C@@H](C(N)=O)NC(=O)[C@H](CCC)NC(=O)[C@H]([C@@H](C)CC)NC(=O)[C@@H](CO)NC(=O)[C@@H]2CCCN2C(=O)[C@H](Cc2ccccc2)NC(=O)[C@H](Cc2ccc(O)cc2)NC(=O)[C@H](CCC(N)=O)NC(=O)[C@H](CCCNC(=N)N)NC1=O [UPAR-329] (Pentanoyl-CRQYFP[dS]I[Nva]C-NH2; disulfide 1-10)', 'IC50', '≤ 10 nM');

====

target_desc: uPAR-expressing HEC-265 human endometrial adenocarcinoma cells (Homo sapiens)
Where a SMILES comes first, the peptide text is derived from it. Bridges are numbered along the chain shown (N, C = ends). [ ]: non-standard residue; d: D form. The star is where a group is joined. DOTA = O=C(O)CN1CCN(CC(=O)O)CCN(CC(=O)*)CCN(CC(=O)O)CC1; Hyp = O=C(O)[C@@H]1C[C@@H](O)CN1; Pentanoyl(4-Me) = CC(C)CCC(=O)*; Cit = NC(=O)NCCC[C@H](N)C(=O)O; Nva = CCC[C@H](N)C(=O)O; Pentanoyl = CCCCC(=O)*
measurement_kind: IC50

INSERT INTO results (compound, measurement) VALUES
  ('CC[C@H](C)[C@@H]1NC(=O)[C@@H](C)NC(=O)[C@@H]2CCCN2C(=O)[C@H](Cc2ccccc2)NC(=O)[C@H](Cc2ccc(O)cc2)NC(=O)[C@H](CCC(N)=O)NC(=O)[C@H](CCCNC(N)=O)NC(=O)[C@@H](NC(=O)CCC(C)C)CSSC[C@@H](C(=O)O)NC(=O)[C@H](CC(C)C)NC1=O [UPAR-131] ({Pentanoyl(4-Me)}-C[Cit]QYFP[dA]ILC-OH; disulfide 1-10)', '≥ 126 nM'),
  ('CC[C@H](C)[C@@H]1NC(=O)[C@@H](C)NC(=O)[C@@H]2CCCN2C(=O)[C@H](Cc2ccccc2)NC(=O)[C@H](Cc2ccc(O)cc2)NC(=O)[C@H](CC(=O)O)NC(=O)[C@H](CCCNC(N)=O)NC(=O)[C@@H](NC(=O)CCC(C)C)CSSC[C@@H](C(N)=O)NC(=O)[C@H](CC(C)C)NC1=O [UPAR-434] ({Pentanoyl(4-Me)}-C[Cit]DYFP[dA]ILC-NH2; disulfide 1-10)', '≤ 10 nM'),
  ('CCCCC(=O)N[C@H]1CSSC[C@@H](C(N)=O)NC(=O)[C@H](CCC)NC(=O)[C@H]([C@@H](C)CC)NC(=O)[C@@H]2C[C@@H](O)CN2C(=O)[C@@H]2CCCN2C(=O)[C@H](Cc2ccccc2)NC(=O)[C@H](Cc2ccc(O)cc2)NC(=O)[C@H](CCCCNC(=O)CN2CCN(CC(=O)O)CCN(CC(=O)O)CCN(CC(=O)O)CC2)NC(=O)[C@H](CO)NC1=O [UPAR-342] (Pentanoyl-CSK(DOTA)YFP[Hyp]I[Nva]C-NH2; disulfide 1-10)', '≤ 10 nM');

====

target_desc: human uPAR (uPAR-Fc) (Homo sapiens)
Construct: comprising amino acids Leu23-Arg303 according to UniProt entry Q03405.1; purchased R&D Systems 10378-UK-100
Sequence (Q03405 23-303): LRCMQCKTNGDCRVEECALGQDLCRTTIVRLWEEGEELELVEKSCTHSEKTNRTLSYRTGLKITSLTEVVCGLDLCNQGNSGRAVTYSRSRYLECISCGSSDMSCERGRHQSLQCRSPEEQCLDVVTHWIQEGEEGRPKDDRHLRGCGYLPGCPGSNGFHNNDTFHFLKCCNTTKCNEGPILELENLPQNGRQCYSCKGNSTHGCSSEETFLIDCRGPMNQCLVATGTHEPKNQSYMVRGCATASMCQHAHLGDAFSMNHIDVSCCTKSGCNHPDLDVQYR
measurement_notes: Surface plasmon resonance (SPR) assay, single cycle kinetics
Format: binding
measurement_conditions: pKD category for uPAR SPR activity assay; uPAR-Fc on Protein A-Chip, 25°C; read-out: pKD CAT (converted)
Where a SMILES comes first, the peptide text is derived from it. Bridges are numbered along the chain shown (N, C = ends). [ ]: non-standard residue; d: D form. The star is where a group is joined. DOTA = O=C(O)CN1CCN(CC(=O)O)CCN(CC(=O)*)CCN(CC(=O)O)CC1; Phe(4-guanidino) = N=C(N)Nc1ccc(C[C@H](N)C(=O)O)cc1; Phe(2,4-Cl2) = N[C@@H](Cc1ccc(Cl)cc1Cl)C(=O)O; Hyp = O=C(O)[C@@H]1C[C@@H](O)CN1; hArg = N=C(N)NCCCC[C@H](N)C(=O)O; 3Pal = N[C@@H](Cc1cccnc1)C(=O)O; Pentanoyl(4-Me) = CC(C)CCC(=O)*; Cit = NC(=O)NCCC[C@H](N)C(=O)O; Nva = CCC[C@H](N)C(=O)O; Pentanoyl = CCCCC(=O)*; Ahx = NCCCCCC(=O)O
Quick reference for Kd among some compounds
measurement_kind: Kd

INSERT INTO results (compound, measurement_kind, measurement) VALUES
  ('CCCCC(=O)N[C@H]1CSSC[C@@H](C(N)=O)NC(=O)[C@H](CCC)NC(=O)[C@H]([C@@H](C)CC)NC(=O)[C@@H]2C[C@@H](O)CN2C(=O)[C@@H]2CCCN2C(=O)[C@H](Cc2ccc(Cl)cc2Cl)NC(=O)[C@H](Cc2ccc(O)cc2)NC(=O)[C@H](CCCCNC(=O)CN2CCN(CC(=O)O)CCN(CC(=O)O)CCN(CC(=O)O)CC2)NC(=O)[C@H](CCCNC(N)=O)NC1=O [UPAR-315] (Pentanoyl-C[Cit]K(DOTA)Y[Phe(2,4-Cl2)]P[Hyp]I[Nva]C-NH2; disulfide 1-10)', 'Kd', '< 1.58 nM'),
  ('CCCCC(=O)N[C@H]1CSSC[C@@H](C(N)=O)NC(=O)[C@H](CCC)NC(=O)[C@H]([C@@H](C)CC)NC(=O)[C@H](CC(C)C)NC(=O)[C@@H]2CCCN2C(=O)[C@H](Cc2ccccc2)NC(=O)[C@H](Cc2ccc(O)cc2)NC(=O)[C@H](CCC(N)=O)NC(=O)[C@H](CCCNC(=N)N)NC1=O [UPAR-281] (Pentanoyl-CRQYFPLI[Nva]C-NH2; disulfide 1-10)', 'Kd', '< 1.58 nM'),
  ('CC[C@H](C)[C@@H]1NC(=O)[C@@H](C)NC(=O)[C@@H]2CCCN2C(=O)[C@H](Cc2ccccc2)NC(=O)[C@H](Cc2ccc(O)cc2)NC(=O)[C@H](CCC(N)=O)NC(=O)[C@H](CCCNC(=N)N)NC(=O)[C@@H](NC(=O)[C@H](CC(C)C)NC(=O)CCCCCNC(=O)CN2CCN(CC(=O)O)CCN(CC(=O)O)CCN(CC(=O)O)CC2)CSSC[C@@H](C(N)=O)NC(=O)[C@H](CC(C)C)NC1=O [UPAR-291] ({DOTA-Ahx}-LCRQYFP[dA]ILC-NH2; disulfide 2-11)', 'Kd', '< 1.58 nM'),
  ('CCCCC(=O)N[C@H]1CSSC[C@@H](C(N)=O)NC(=O)[C@H](CCC)NC(=O)[C@H]([C@@H](C)CC)NC(=O)[C@@H]2C[C@@H](O)CN2C(=O)[C@@H]2CCCN2C(=O)[C@H](Cc2ccccc2)NC(=O)[C@H](Cc2ccc(O)cc2)NC(=O)[C@H](CCCCNC(=O)CN2CCN(CC(=O)O)CCN(CC(=O)O)CCN(CC(=O)O)CC2)NC(=O)[C@H](CCCNC(N)=O)NC1=O [UPAR-261] (Pentanoyl-C[Cit]K(DOTA)YFP[Hyp]I[Nva]C-NH2; disulfide 1-10)', 'Kd', '< 1.58 nM'),
  ('CCCCC(=O)N[C@H]1CSSC[C@@H](C(N)=O)NC(=O)[C@H](CCC)NC(=O)[C@H]([C@@H](C)CC)NC(=O)[C@@H]2C[C@@H](O)CN2C(=O)[C@@H]2CCCN2C(=O)[C@H](Cc2ccccc2)NC(=O)[C@H](Cc2ccc(NC(=N)N)cc2)NC(=O)[C@H](CCCCNC(=O)CN2CCN(CC(=O)O)CCN(CC(=O)O)CCN(CC(=O)O)CC2)NC(=O)[C@H](CCCNC(N)=O)NC1=O [UPAR-149] (Pentanoyl-C[Cit]K(DOTA)[Phe(4-guanidino)]FP[Hyp]I[Nva]C-NH2; disulfide 1-10)', 'Kd', '< 1.58 nM'),
  ('CC(C)CCC(=O)N[C@H]1CSSC[C@@H](C(N)=O)NC(=O)[C@H](CC(C)C)NC(=O)[C@H](C)NC(=O)[C@@H](C)NC(=O)[C@@H]2CCCN2C(=O)[C@H](Cc2ccccc2)NC(=O)[C@H](Cc2ccc(O)cc2)NC(=O)[C@H](CCC(N)=O)NC(=O)[C@H](CCCNC(N)=O)NC1=O [UPAR-164] ({Pentanoyl(4-Me)}-C[Cit]QYFP[dA]ALC-NH2; disulfide 1-10)', 'Kd', '> 100 nM'),
  ('CC[C@H](C)[C@@H]1NC(=O)[C@@H]2C[C@@H](O)CN2C(=O)[C@@H]2CCCN2C(=O)[C@H](Cc2ccccc2)NC(=O)[C@H](Cc2ccc(O)cc2)NC(=O)[C@H](CCC(N)=O)NC(=O)[C@H](CCCCNC(=N)N)NC(=O)[C@@H](NC(=O)CCC(C)C)CSSC[C@@H](C(N)=O)NC(=O)[C@H](CC(C)C)NC1=O [UPAR-167] ({Pentanoyl(4-Me)}-C[hArg]QYFP[Hyp]ILC-NH2; disulfide 1-10)', 'Kd', '< 1.58 nM'),
  ('CCCCC(=O)N[C@H]1CSSC[C@@H](C(N)=O)NC(=O)[C@H](CCC)NC(=O)[C@H]([C@@H](C)CC)NC(=O)[C@@H]2C[C@@H](O)CN2C(=O)[C@@H]2CCCN2C(=O)[C@H](Cc2cccnc2)NC(=O)[C@H](Cc2ccc(O)cc2)NC(=O)[C@H](CCCCNC(=O)CN2CCN(CC(=O)O)CCN(CC(=O)O)CCN(CC(=O)O)CC2)NC(=O)[C@H](CCCNC(N)=O)NC1=O [UPAR-253] (Pentanoyl-C[Cit]K(DOTA)Y[3Pal]P[Hyp]I[Nva]C-NH2; disulfide 1-10)', 'Kd', '1.58 to 10 nM'),
  ('CC[C@H](C)[C@@H]1NC(=O)[C@@H](C)NC(=O)[C@@H]2CCCN2C(=O)[C@H](Cc2ccccc2)NC(=O)[C@H](Cc2ccc(O)cc2)NC(=O)[C@H](C)NC(=O)[C@H](CCCNC(N)=O)NC(=O)[C@@H](NC(=O)CCC(C)C)CSSC[C@@H](C(N)=O)NC(=O)[C@H](CC(C)C)NC1=O [UPAR-339] ({Pentanoyl(4-Me)}-C[Cit]AYFP[dA]ILC-NH2; disulfide 1-10)', 'Kd', '1.58 to 10 nM');
